For each record, write down the corresponding remaining activity at 100 µM.
testedOn: Recombinant M. tuberculosis MbtI (Mycobacterium tuberculosis, UniProt P9WFX1)
Construct: made in house
Sequence (P9WFX1 whole entry): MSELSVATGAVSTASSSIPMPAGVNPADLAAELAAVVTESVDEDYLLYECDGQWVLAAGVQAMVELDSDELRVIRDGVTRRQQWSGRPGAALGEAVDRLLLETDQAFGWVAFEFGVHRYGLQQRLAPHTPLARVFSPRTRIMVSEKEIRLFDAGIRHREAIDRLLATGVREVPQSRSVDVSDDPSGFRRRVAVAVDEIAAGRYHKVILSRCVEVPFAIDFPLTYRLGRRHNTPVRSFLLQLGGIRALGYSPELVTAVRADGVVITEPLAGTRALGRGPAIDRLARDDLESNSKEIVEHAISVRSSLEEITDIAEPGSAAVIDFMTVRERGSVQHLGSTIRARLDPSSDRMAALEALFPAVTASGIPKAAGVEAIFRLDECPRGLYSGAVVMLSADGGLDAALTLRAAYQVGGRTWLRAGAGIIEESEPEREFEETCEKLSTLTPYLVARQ
assayExplanation: MbtI enzymatic assay (fluorimetric)
Format: biochemical
assayConditions: compound at 100 μM; 50 µM chorismic acid; read-out: % RA (percentage of residual enzymatic activity)
Form entry: value (%) — number only.

**Query** I am curious: what remaining activity at 100 µM value has been reported for N#Cc1cc(Oc2ccc3ccccc3c2)cc(-c2ccc(C(=O)O)o2)c1 [1h] ?
**Result** 12.7

**Query** I am curious: what remaining activity at 100 µM value has been reported for N#Cc1cc(Oc2ccccc2)cc(-c2ccc(C(=O)O)o2)c1 [1a] ?
**Result** 14

**Query** I am curious: what remaining activity at 100 µM value has been reported for N#Cc1cc(OCc2ccc3ccccc3c2)cc(-c2ccc(C(=O)O)o2)c1 [1j] ?
**Result** 19.8

**Query** I am curious: what remaining activity at 100 µM value has been reported for N#Cc1cc(OCCOc2ccccc2)cc(-c2ccc(C(=O)O)o2)c1 [1f] ?
**Result** 5.5

**Query** I am curious: what remaining activity at 100 µM value has been reported for N#Cc1cc(OCCc2ccccc2)cc(-c2ccc(C(=O)O)o2)c1 [1c] ?
**Result** 0.6

**Query** I am curious: what remaining activity at 100 µM value has been reported for N#Cc1cc(OC/C=C/c2ccccc2)cc(-c2ccc(C(=O)O)o2)c1 [1e] ?
**Result** 11.5

**Query** I am curious: what remaining activity at 100 µM value has been reported for N#Cc1cc(Oc2ccc3cccnc3c2)cc(-c2ccc(C(=O)O)o2)c1 [1i] ?
**Result** 13.9

**Query** I am curious: what remaining activity at 100 µM value has been reported for N#Cc1cc(OCCNc2ccccc2)cc(-c2ccc(C(=O)O)o2)c1 [1g] ?
**Result** 9.3

**Query** I am curious: what remaining activity at 100 µM value has been reported for N#Cc1cc(OCc2ccccc2)cc(-c2ccc(C(=O)O)o2)c1 [1b] ?
**Result** 1.2
